Each record here notes measured TGI.
Tested on: A498 renal
Assay: NCI tumour cell line growth inhibition, 48 h
metric: TGI (µM)

INSERT INTO results (smiles_record, value_operator, recorded_number) VALUES
  ('ClCCN(CCCl)c1ccc(CNCCCNCc2ccc(N(CCCl)CCCl)cc2)cc1', '=', 33.8),
  ('O=c1/c(=C/c2ccc([N+](=O)[O-])o2)sc2n1[C@@H](c1ccc3c(c1)OCO3)C=C(c1cc(F)c(Cl)cc1Cl)N=2', '>', 100),
  ('Cc1ccc(S(=O)(=O)OC[C@@]2(C)CC[C@]3(C)CC[C@]4(C)C(=CC[C@@H]5[C@@]6(C)CCCNC(C)(C)[C@@H]6CC[C@]54C)[C@@H]3C2)cc1', '=', 3.16),
  ('CN1CCN(CC(=O)N2c3cccc4cccc(c34)N(C(=O)CN3CCN(C)CC3)C2c2cn(-c3ccccc3)nc2-c2cccc([N+](=O)[O-])c2)CC1', '=', 3.95);
